# Tested on: 485368-065-R3-J5-PDC spheroids with HUVEC/MSC, viability;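 also: spheroids exposed to agents for seven days before readout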
# Protocol text: Anticancer human tumor 485368-065-R3-J5-PDC patient-derived pancreatic carcinoma cell line growth inhibition [RAS]
# Measurement parameters: curve of first compound; second compound 0.3 µM
Parameter measured: IC50

Nc1ccn(C2OC(CO)C(O)C2(F)F)c(=O)n1 (centres undefined) + CCn1c(-c2cccnc2C(C)OC)c2c3cc(ccc31)N1CCOC(CC(NC(=O)C(C(C)C)N(C)C(=O)C3(F)CCN(C(=O)C#CC(C)(C)N(C)C)CC3)C(=O)N3CCCC(N3)C(=O)OCC(C)(C)C2)C1 | 6.66 nM
CC(Nc1ccc2c(c1)OCCn1cc(N3C(=O)OCC3C(F)F)nc1-2)C(N)=O (centres undefined) + CCn1c(-c2cccnc2C(C)OC)c2c3cc(ccc31)N1CCOC(CC(NC(=O)C(C(C)C)N(C)C(=O)C3(F)CCN(C(=O)C#CC(C)(C)N(C)C)CC3)C(=O)N3CCCC(N3)C(=O)OCC(C)(C)C2)C1 | > 10000 nM
C[C@@H](NC(=O)c1ncnc(N)c1Cl)c1ncc(C(=O)Nc2cc(C(F)(F)F)c(Cl)cn2)s1 + CCn1c(-c2cc(N3CCN(C)CC3)cnc2C(C)OC)c2c3cc(ccc31)-c1csc(n1)CC(NC(=O)C1CC1C)C(=O)N1CCCC(N1)C(=O)OCC(C)(C)C2 | < 31.6 nM

Now for another entry.
Returns the measured IC50 for the input molecule. Input: Cc1nc(N2CCC3(CC2)COC(C)C3N)c(CO)nc1Sc1ccnc(N)c1Cl (centres undefined) + CCn1c(-c2cc(N3CCN(C)CC3)cnc2C(C)OC)c2c3cc(ccc31)-c1csc(n1)CC(NC(=O)C1CC1C)C(=O)N1CCCC(N1)C(=O)OCC(C)(C)C2 < 31.6 nM
